tested on: Monkey Kidney Cells (CV-1); assay: Cytotoxicity to monkey kidney cells (CV-1) determined by Dr. R. G. Hughes, Jr.; details: 100 μg/disk; 8 or less essentially indicates noncytotoxicity
Parameter: cytotoxicity, zone diameter (mm)
Hi! Could you send only the number? It should be in mm, unit omitted.

Here's what some known entries look like.
Compound	Parameter	Unit spec	Number
Nc1ncc([C@@H]2[C@@H](CNC(=O)c3cc(Br)c[nH]3)[C@H](CNC(=O)c3cc(Br)c[nH]3)[C@H]2c2cnc(N)[nH]2)[nH]1 (relative stereo) [Compound 2a, Sceptrin Acetate]	cytotoxicity, zone diameter	mm	7
Nc1ncc([C@@H]2[C@@H](CNC(=O)c3ccc[nH]3)[C@H](CNC(=O)c3cc(Br)c[nH]3)[C@H]2c2cnc(N)[nH]2)[nH]1 (relative stereo) [Compound 1a, Debromosceptrin Acetate]	cytotoxicity, zone diameter	mm	5
NC1=NC(=O)C(C2C(CNC(=O)c3ccc[nH]3)C(CNC(=O)c3cc(Br)c[nH]3)C2c2cnc(N)[nH]2)N1 (centres unmarked) [Compound 7a, Debromooxysceptrin Acetate]	cytotoxicity, zone diameter	mm	6
NC1=NC(=O)C(C2C(CNC(=O)c3cc(Br)c[nH]3)C(CNC(=O)c3cc(Br)c[nH]3)C2c2cnc(N)[nH]2)N1 (centres unmarked) [Compound 8a, Oxysceptrin Acetate]	cytotoxicity, zone diameter	mm	6

The compound listed as Nc1ncc(C2c3nc(N)[nH]c3CC(CNC(=O)c3cc(Br)c(Br)[nH]3)C2CNC(=O)c2cc(Br)c[nH]2)[nH]1 (centres unmarked) [Compound 5a, Bromoageliferin Acetate] shows cytotoxicity, zone diameter equal to 7

###

system: Monkey Kidney Cells (CV-1); assay: Cytotoxicity to monkey kidney cells (CV-1) determined by Dr. R. G. Hughes, Jr.; settings: 25 μg/disk; 8 or less essentially indicates noncytotoxicity
Parameter: cytotoxicity, zone diameter (mm)
Give just the number in mm; leave the unit off.

# annotated cases, reported cytotoxicity, zone diameter shown
Molecule	Unit spec	cytotoxicity, zone diameter
Nc1ncc([C@@H]2[C@@H](CNC(=O)c3ccc[nH]3)[C@H](CNC(=O)c3cc(Br)c[nH]3)[C@H]2c2cnc(N)[nH]2)[nH]1 (relative stereo) [Compound 1a, Debromosceptrin Acetate]	mm	5
Nc1ncc(C2c3nc(N)[nH]c3CC(CNC(=O)c3cc(Br)c(Br)[nH]3)C2CNC(=O)c2cc(Br)c[nH]2)[nH]1 (stereo not drawn) [Compound 5a, Bromoageliferin Acetate]	mm	5

Reported cytotoxicity, zone diameter of Nc1ncc(C2c3nc(N)[nH]c3CC(CNC(=O)c3cc(Br)c(Br)[nH]3)C2CNC(=O)c2cc(Br)c(Br)[nH]2)[nH]1 (stereo not drawn) [Compound 6a, Dibromoageliferin Acetate] : 6

###

Listing: zone of inhibition at 200 µg/disc of selected compounds
tested on: Herpes simplex virus, type I (HSV-1); experiment: microbe, parasite or virus in culture; format: cell-based; conditions: Human alphaherpesvirus 1, in Primates; read-out: antiviral activity, HSV-1, ++ scale

// known answers, use as guide
Compound	Parameter	Result
NC1=NC(=O)C(C2C(CNC(=O)c3cc(Br)c[nH]3)C(CNC(=O)c3cc(Br)c[nH]3)C2c2cnc(N)[nH]2)N1 (centres unmarked) [Compound 8a, Oxysceptrin Acetate]	zone of inhibition at 200 µg/disc	11 to 15 mm
NC1=NC(=O)C(C2C(CNC(=O)c3ccc[nH]3)C(CNC(=O)c3cc(Br)c[nH]3)C2c2cnc(N)[nH]2)N1 (centres unmarked) [Compound 7a, Debromooxysceptrin Acetate]	zone of inhibition at 200 µg/disc	8 to 10 mm
Nc1ncc([C@@H]2[C@@H](CNC(=O)c3cc(Br)c(Br)[nH]3)[C@H](CNC(=O)c3cc(Br)c(Br)[nH]3)[C@H]2c2cnc(N)[nH]2)[nH]1 (relative stereo) [Compound 3a, Dibromosceptrin Acetate]	zone of inhibition at 200 µg/disc	11 to 15 mm
Nc1ncc(C2c3nc(N)[nH]c3CC(CNC(=O)c3cc(Br)c[nH]3)C2CNC(=O)c2cc(Br)c[nH]2)[nH]1 (centres unmarked) [Compound 4a, Ageliferin Acetate]	zone of inhibition at 200 µg/disc	> 16 mm

# zone of inhibition at 200 µg/disc of Nc1ncc([C@@H]2[C@@H](CNC(=O)c3cc(Br)c[nH]3)[C@H](CNC(=O)c3cc(Br)c[nH]3)[C@H]2c2cnc(N)[nH]2)[nH]1 (relative stereo) [Compound 2a, Sceptrin Acetate] = > 16 mm

The compound listed as Nc1ncc(C2c3nc(N)[nH]c3CC(CNC(=O)c3cc(Br)c(Br)[nH]3)C2CNC(=O)c2cc(Br)c(Br)[nH]2)[nH]1 (centres unmarked) [Compound 6a, Dibromoageliferin Acetate] shows zone of inhibition at 200 µg/disc equal to 11 to 15 mm

Given item Nc1ncc(C2c3nc(N)[nH]c3CC(CNC(=O)c3cc(Br)c(Br)[nH]3)C2CNC(=O)c2cc(Br)c[nH]2)[nH]1 (centres unmarked) [Compound 5a, Bromoageliferin Acetate] , the value recorded as its zone of inhibition at 200 µg/disc is 11 to 15 mm

zone of inhibition at 200 µg/disc reported for this compound Nc1ncc([C@@H]2[C@@H](CNC(=O)c3ccc[nH]3)[C@H](CNC(=O)c3cc(Br)c[nH]3)[C@H]2c2cnc(N)[nH]2)[nH]1 (relative stereo) [Compound 1a, Debromosceptrin Acetate] : > 16 mm
